Documented Km across a set of proteins
Substrate: CCCCCCCCCCC1=C(C)C(=O)C(OC)=C(OC)C1=O
protocol text: purified protein
Assay type: biochemical, Thiocapsa roseopersicina
cond: 200 µM sulfide, 50 mM Tris-HCl pH 8.0, 25 °C, anaerobic
Give the quantity in µM, number only.

TrSqrF; SqrF WT (Thiocapsa roseopersicina; V331F) (protein) MHRITIVGSGFAGLTAVQSIRRTAPDAEITLVSNKAEFIYYPGLIWVPCGIRSGEDLRIDLRPFFKRMRVRHLAGEATGLSPDGRTLETTAGPVENDGLVIGSGGRFIKKLPGIEHAITPCEGIAAAEAIRDRVKAMDGGSIAMGFAGNPNEPSSMRGGPIFEFIFGMDSQLRKEGRRDRFRLHFFTPAERPGNRLGPKAVDGILAEMKRRGIETHLGHKLKSFSESKVTTEAGEFDADLILFMPGMTGNTWFDNTDLPRSPGGLLQADAHCRVPGYERVYVAGDSGSFPGPDWMPKQAHMADLQARAAVKNLLAELQGRAPSETFKVELFCIVDANDTGMLVARTEKNNWVLPSTRFFHWMKLGFEWWYLRPYR : 12.33
TrSqrF; SqrF WT (Thiocapsa roseopersicina; V331A) (protein) MHRITIVGSGFAGLTAVQSIRRTAPDAEITLVSNKAEFIYYPGLIWVPCGIRSGEDLRIDLRPFFKRMRVRHLAGEATGLSPDGRTLETTAGPVENDGLVIGSGGRFIKKLPGIEHAITPCEGIAAAEAIRDRVKAMDGGSIAMGFAGNPNEPSSMRGGPIFEFIFGMDSQLRKEGRRDRFRLHFFTPAERPGNRLGPKAVDGILAEMKRRGIETHLGHKLKSFSESKVTTEAGEFDADLILFMPGMTGNTWFDNTDLPRSPGGLLQADAHCRVPGYERVYVAGDSGSFPGPDWMPKQAHMADLQARAAVKNLLAELQGRAPSETFKVELACIVDANDTGMLVARTEKNNWVLPSTRFFHWMKLGFEWWYLRPYR : 18.99

Exercise: Return Km for the following protein: TrSqrF; SqrF WT (Thiocapsa roseopersicina) (protein) MHRITIVGSGFAGLTAVQSIRRTAPDAEITLVSNKAEFIYYPGLIWVPCGIRSGEDLRIDLRPFFKRMRVRHLAGEATGLSPDGRTLETTAGPVENDGLVIGSGGRFIKKLPGIEHAITPCEGIAAAEAIRDRVKAMDGGSIAMGFAGNPNEPSSMRGGPIFEFIFGMDSQLRKEGRRDRFRLHFFTPAERPGNRLGPKAVDGILAEMKRRGIETHLGHKLKSFSESKVTTEAGEFDADLILFMPGMTGNTWFDNTDLPRSPGGLLQADAHCRVPGYERVYVAGDSGSFPGPDWMPKQAHMADLQARAAVKNLLAELQGRAPSETFKVELVCIVDANDTGMLVARTEKNNWVLPSTRFFHWMKLGFEWWYLRPYR
Key: 24.47
